src = PubChem BioAssay AID1159605

Biological target: Mitogen-activated protein kinase kinase kinase 5 (Homo sapiens) (UniProt Q99683)
Sequence (Q99683 whole entry, looked up): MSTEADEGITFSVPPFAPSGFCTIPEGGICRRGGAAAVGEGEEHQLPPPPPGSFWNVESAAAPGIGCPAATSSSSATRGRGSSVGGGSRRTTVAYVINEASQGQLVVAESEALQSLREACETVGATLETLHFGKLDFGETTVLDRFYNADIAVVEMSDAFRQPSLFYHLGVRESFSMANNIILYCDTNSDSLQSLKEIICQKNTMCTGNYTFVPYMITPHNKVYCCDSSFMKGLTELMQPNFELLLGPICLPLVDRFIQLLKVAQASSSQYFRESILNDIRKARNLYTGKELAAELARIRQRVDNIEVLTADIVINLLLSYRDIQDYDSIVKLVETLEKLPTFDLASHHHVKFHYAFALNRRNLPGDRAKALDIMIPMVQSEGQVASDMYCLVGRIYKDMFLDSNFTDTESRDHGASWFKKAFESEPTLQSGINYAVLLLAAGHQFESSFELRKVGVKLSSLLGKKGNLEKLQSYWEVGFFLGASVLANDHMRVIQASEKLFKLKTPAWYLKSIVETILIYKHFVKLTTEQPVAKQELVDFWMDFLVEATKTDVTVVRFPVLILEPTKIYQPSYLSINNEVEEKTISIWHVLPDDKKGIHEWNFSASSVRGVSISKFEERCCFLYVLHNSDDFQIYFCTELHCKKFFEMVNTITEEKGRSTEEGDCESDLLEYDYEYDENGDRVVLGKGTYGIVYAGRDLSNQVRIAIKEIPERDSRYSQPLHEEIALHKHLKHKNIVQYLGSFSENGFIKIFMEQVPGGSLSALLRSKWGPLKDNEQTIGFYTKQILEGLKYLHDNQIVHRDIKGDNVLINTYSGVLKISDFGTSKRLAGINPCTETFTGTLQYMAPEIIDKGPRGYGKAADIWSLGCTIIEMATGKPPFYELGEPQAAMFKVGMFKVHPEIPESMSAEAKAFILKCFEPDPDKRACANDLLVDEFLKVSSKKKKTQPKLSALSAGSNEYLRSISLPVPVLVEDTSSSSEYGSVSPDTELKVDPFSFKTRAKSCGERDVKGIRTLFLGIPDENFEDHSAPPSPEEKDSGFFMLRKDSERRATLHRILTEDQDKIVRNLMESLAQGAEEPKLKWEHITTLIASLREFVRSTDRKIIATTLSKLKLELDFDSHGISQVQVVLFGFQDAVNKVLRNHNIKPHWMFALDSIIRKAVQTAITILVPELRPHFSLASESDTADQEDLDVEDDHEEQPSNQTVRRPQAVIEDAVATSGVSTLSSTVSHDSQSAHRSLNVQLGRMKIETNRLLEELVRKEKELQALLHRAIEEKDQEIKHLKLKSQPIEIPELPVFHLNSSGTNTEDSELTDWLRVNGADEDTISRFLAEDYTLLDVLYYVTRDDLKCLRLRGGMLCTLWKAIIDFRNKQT
Assay: MAP3K5 inhibition concentration-response curves – biochemical, AlphaScreen, MKK6 phosphorylation, dose response (AID 1159605);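 further: ASK1 phosphorylation of MKK6 substrate detected with anti-phospho-MKK6 antibody beads; inhibitors lower the luminescent signal by blocking MKK6 phosphorylation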
Settings: ASK1 MKK6 phosphorylation, AlphaScreen luminescence
Calls of active or inactive are those of the source.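 How the source made its calls: active means IC50 of 10 µM or lower; inactive means IC50 above 10 µM.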
observation.type: IC50

{"columns": ["structure.smiles.string", "measured"],
 "data": [
  ["Oc1ccc(CCNc2nc(NC3CCN(Cc4ccccc4)CC3)nc3c2ncn3Cc2ccc(C(F)(F)F)cc2)cc1", "inactive"],
  ["COc1cc2nc(Nc3cc(OC)c(OC)c(OC)c3)nc(Nc3ccc(N4CCOCC4)cc3)c2cc1OC", "> 20.3 µM (inactive)"],
  ["CCN(CC)c1nc(Nc2ccc(N3CCOCC3)cc2)nc(N2CCN(Cc3ccc4c(c3)OCO4)CC2)n1", "8.17 µM"],
  ["c1cc(-n2cnc3c(Nc4ccc(N5CCOCC5)cc4)nc(NCc4ccc5c(c4)OCO5)nc32)cs1", "> 19.9 µM (inactive)"],
  ["CCN(CC)c1nc(Nc2ccc3c(c2)OCO3)nc(N2CCC(N3CCOCC3)CC2)n1", "inactive"],
  ["c1nc(Nc2ccc(N3CCOCC3)cc2)c2[nH]c(N3CCN(Cc4ccc5c(c4)OCO5)CC3)nc2n1", "> 13.8 µM (inactive)"],
  ["COc1cc2nc(Nc3ccccc3)nc(Nc3ccc(N4CCOCC4)cc3)c2cc1OC", "> 24 µM (inactive)"],
  ["Cn1cc(-c2ccc3cnc(Nc4ccc(-n5cnc(N6CCOCC6)n5)cc4)nc3c2)cn1", "> 19.2 µM (inactive)"],
  ["CN(C)c1cccc(Nc2nccc(NCCOc3ccccc3)n2)c1", "inactive"],
  ["c1ccc(-c2ncn[nH]2)c(Nc2ccnc(Nc3ccc(N4CCOCC4)cc3)c2)c1", "> 19.2 µM (inactive)"]
]}

Exercise: Provide only the value of recorded IC50 for `COc1ccc(CCNc2nc(NC3CCN(Cc4ccccc4)CC3)nc3c2ncn3C2CCCCC2)cc1`
Key: inactive

Exercise: Dear colleague, please send me the reported IC50 for `COc1cc2nc(Nc3nc4ccccc4n3C)nc(Nc3ccc(NC(C)=O)cc3)c2cc1OC` when you can.
Key: 4.33 µM

Exercise: Give reported IC50 value for `c1cn(-c2ccc(Nc3nc4ncnc(Nc5ccc6c(c5)OCO6)c4[nH]3)cc2)cn1`
Key: > 21.9 µM (inactive)

Exercise: # return recorded IC50 for entry `COc1cc2nc(Nc3ccncc3)nc(Nc3ccc(N4CCOCC4)cc3)c2cc1OC`
Key: inactive

Exercise: Recall and state the measured IC50 for `CC(C)n1c(-c2ccc(C(N)=O)cc2)nc2c(Nc3ccc(Oc4ccccc4)cc3)ncnc21` .
Key: > 20 µM (inactive)

Exercise: Using the record for `COc1cc(NC(=O)c2cccc(-n3cc(NC(=O)Nc4ccc(-c5ccccc5)cc4)cn3)c2)cc(OC)c1OC` , state its measured IC50.
Key: > 19.2 µM (inactive)

Exercise: Tell me its IC50 given `COc1ccc(-c2ncn(-c3ccc(Nc4nccc(-c5cc(C#N)cc(N6CCNCC6)c5)n4)cc3)n2)cn1` as the entry.
Key: > 19.2 µM (inactive)

Exercise: Identify measured IC50 associated with `FC(F)(F)c1ccc(Cn2cnc3c(Nc4ccc5c(c4)OCO5)nc(Nc4ccc(N5CCOCC5)cc4)nc32)cc1`
Key: 5.36 µM
